FYI, the data here is from ChEMBL document CHEMBL1153384.

measurement_notes: Biodistribution in cannulated Wistar rat urine assessed as [3H]labeled drug level at 54 umol/kg, iv after 5 hrs
Format: ADME, organism-based
test_settings: in vivo
quantity_measured: Activity
Returns: string containing the number followed by the unit.

Task item: Quick one: Activity of `CC(C)(C)NCc1cc(Nc2ccnc3cc(Cl)ccc23)ccc1F` ?
Reply: 8.06 %ID

###

measurement_notes: Toxicity against Wistar rat hepatocytes after 6 hrs by trypan blue exclusion method
Assay type: cell-based, Hepatocyte
test_settings: read-out: TC50
quantity_measured: CC50 at 6 h (µM)
Numeric answer only, unit µM assumed.

# smiles_str, unit_string, recorded_result
rows = [
    ("CCN(CC)Cc1cc(Nc2ccnc3cc(Cl)ccc23)ccc1O.Cl", "µM", 78),
    ("CC(C)(C)NCc1cc(Nc2ccnc3cc(Cl)ccc23)ccc1F", "µM", 385),
]

For the next question, use this compound.
Task item: Reported CC50 at 6 h, compound `CC(C)(C)NCc1cc(Nc2ccnc3cc(Cl)ccc23)ccc1Cl` : ____
Reply: 120
